- experimental-target: MCR-1 (Homo sapiens, UniProt Q01726)
- Construct: expressed in transfected cells; host or cells: HEK 293
- Sequence (Q01726 whole entry): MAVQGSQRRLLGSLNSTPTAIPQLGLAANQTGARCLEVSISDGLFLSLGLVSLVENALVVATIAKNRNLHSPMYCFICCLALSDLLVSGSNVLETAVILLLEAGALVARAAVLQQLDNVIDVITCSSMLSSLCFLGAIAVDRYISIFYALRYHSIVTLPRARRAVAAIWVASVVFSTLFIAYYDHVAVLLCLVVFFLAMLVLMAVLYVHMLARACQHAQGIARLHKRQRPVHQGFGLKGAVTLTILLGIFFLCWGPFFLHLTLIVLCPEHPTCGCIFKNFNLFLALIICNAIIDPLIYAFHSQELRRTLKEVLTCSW
- assay-text: Melanocortin receptor binding assay, competition with 125I-HP 467, HEK 293 cells expressing hMCR-1
- stated-conditions: inhibition of binding of 125I-HP 467, HEK 293 cells expressing MCR-1; TRG 2414 library; read-out: MC-1 IC50
measurement-name: pIC50
# pIC50 = -log10(concentration in molar units)

Recorded results for 5 molecules are shown here.
NCC(CCCCN1Cc2ccccc2C(CNCc2ccccc2)C1c1ccc(Cl)cc1Cl)NCc1ccccc1 (stereo not drawn) :: 5.41
NCC(CCCCN1Cc2ccccc2C(CNC2CCCCC2)C1c1cccc(Oc2ccccc2)c1)NCCc1ccccc1 (mixture of isomers) :: 5.07
COc1ccccc1CCNCC1c2ccccc2CN(CCCCC(CN)NCCc2ccccc2)C1c1ccc(Cl)cc1Cl (stereo not drawn) :: 5.53
CCCOc1ccc(C2C(CNCCc3ccccc3OC)c3ccccc3CN2CCCCC(CN)NCc2ccccc2)cc1 (stereo not drawn) :: 5.96
NCC(CCCCN1Cc2ccccc2C(CNC2CCCCC2)C1c1ccc(Oc2ccccc2)cc1)NCCc1ccccc1 (mixture of isomers) :: 5.56

We now examine a further molecule.
Problem: GET /values?readout=pIC50&item= NCC(N)CCCCN1Cc2ccccc2C(CNCCc2cccc(Cl)c2)C1c1ccc(Cl)cc1Cl (stereo not drawn)
Result: 5.66

* * *

- experimental-target: MCR-4 (Homo sapiens)
- Construct: expressed in transfected cells; host or cells: HEK 293
- assay-text: Melanocortin receptor binding assay, competition with 125I-HP 467, HEK 293 cells expressing hMCR-4
- stated-conditions: competition with 125I-HP 467, HEK 293 cells expressing MCR-4; read-out: MC-4 IC50
measurement-name: pIC50
# pIC50 = -log10(concentration in molar units)

Recorded results for 3 compounds are shown here.
CCCCNc1ccc(C2C(CN)c3ccccc3CN2CCCCC(CN)NCc2ccc(OC)cc2)cc1 (stereo not shown) [TRG 2411-109] :: 5.85
NCC(CCCN1Cc2ccccc2C(CNCCc2ccccc2)C1c1ccc(-c2ccccc2)cc1)NCCc1ccccc1 (stereo not shown) [TRG 2411-116] :: 5.70
CCCCNc1ccc(C2C(CNCCc3ccccc3)c3ccccc3CN2CCCCC(CN)NCc2ccc(OC)cc2)cc1 (stereo not shown) [TRG 2411-82] :: 5.84

Problem: GET /values?readout=pIC50&item= CCCCNc1ccc(C2C(CN)c3ccccc3CN2CCCCC(CN)NCCCC)cc1 (stereo not shown) [TRG 2411-102]
Result: 5.93

* * *

- experimental-target: MCR-4 (Homo sapiens, UniProt P32245)
- Construct: expressed in transfected cells; host or cells: HEK 293
- Sequence (P32245 whole entry): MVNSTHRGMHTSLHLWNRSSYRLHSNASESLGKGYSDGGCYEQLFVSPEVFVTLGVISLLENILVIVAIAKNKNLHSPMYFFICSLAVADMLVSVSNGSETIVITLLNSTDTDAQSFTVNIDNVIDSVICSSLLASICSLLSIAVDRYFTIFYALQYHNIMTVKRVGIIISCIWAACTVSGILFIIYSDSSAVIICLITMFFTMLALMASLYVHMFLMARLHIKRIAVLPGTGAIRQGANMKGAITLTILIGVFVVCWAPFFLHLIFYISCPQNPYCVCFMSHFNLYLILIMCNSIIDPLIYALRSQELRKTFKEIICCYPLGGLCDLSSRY
- assay-text: Melanocortin receptor binding assay, competition with 125I-HP 467, HEK 293 cells expressing hMCR-4
- stated-conditions: inhibition of binding of 125I-HP 467, HEK 293 cells expressing MCR-4; read-out: MC-4 IC50
measurement-name: pIC50
# pIC50 = -log10(concentration in molar units)

CCNc1ccc(C2C(CNCCc3ccccc3)c3ccccc3CN2CCCC(CN)NCc2ccccc2)cc1 (stereo not drawn) :: 6.39
CCNc1ccc(C2C(CNCCc3ccccc3)c3ccccc3CN2CCCC(CN)NCCc2ccc3ccccc3c2)cc1 (stereo not drawn) :: 6.19
CCNc1ccc(C2C(CNCCc3ccccc3)c3ccccc3CN2CCCC(CN)NCCOCCNCCc2ccccc2)cc1 (stereo not drawn) :: 5.82
COc1ccc(CCNCC2c3ccccc3CN(CCCCC(CN)NCc3ccccc3)C2c2cc(C(F)(F)F)cc(C(F)(F)F)c2)cc1OC (stereo not drawn) :: 6.44
NCC(CCCCN1Cc2ccccc2C(CNCCc2ccccc2)C1c1cc(C(F)(F)F)cc(C(F)(F)F)c1)NCc1ccc(-c2ccccc2)cc1 (stereo not drawn) :: 5.03

We now examine a further molecule.
Problem: GET /values?readout=pIC50&item= CCNc1ccc(C2C(CNCCc3ccccc3)c3ccccc3CN2CCC[C@@H](CN)NCCOCCN(CC)CC)cc1 (stereo partly drawn)
Result: 5.33

* * *

- experimental-target: MCR-4 (Homo sapiens)
- Construct: expressed in transfected cells; host or cells: HEK 293
- assay-text: Melanocortin receptor binding assay, competition with 125I-HP 467, HEK 293 cells expressing hMCR-4
- stated-conditions: TRG 2408 and TRG 2409 libraries; inhibition of 125I-HP 467 binding; read-out: MC-4 IC50
- Protocol: All cell culture media and reagents were obtained from GibcoBRL (Gaithersburg Md.), except for COSMIC CALF SERUM (HyClone; Logan Utah). Cells were suspended in PBS, 10% COSMIC CALF SERUM and 1 mM CaCl2. […] To assay isoquinoline compounds, binding assays were performed in duplicate in a 96 well format. […] Cells were harvested on GF/B filter plates as described above and counted.
pIC50 overview
# pIC50 = -log10(concentration in molar units)

Recorded results for 5 compounds are shown here.
CCNc1ccc(C2C(CNC3CCCCC3)c3ccccc3CN2CCC(CN)NCCNC)cc1 (stereo not drawn) [TRG 2408-94] :: 4.57
CNCCNC(CN)CCCN1Cc2ccccc2C(CNC2CCCCC2)C1c1ccc(Cl)cc1Cl (stereo not drawn) [TRG 2408-74] :: 5.37
NCCNC(CN)CCCCN1Cc2ccccc2C(CNC2CCCCC2)C1c1ccc(Cl)cc1Cl (stereo not drawn) [TRG 2408-15] :: 5.20
CNC(CN)CCN1Cc2ccccc2C(CNC2CCCCC2)C1c1ccc(-c2ccccc2)cc1 (stereo not drawn) [TRG 2408-110] :: 5.05
CCNc1ccc(C2C(CNC3CCCCC3)c3ccccc3CN2CCC(CN)NCCc2ccccc2)cc1 (stereo not drawn) [TRG 2408-92] :: 5.81

Problem: I'm curious: which pIC50 was measured for CCNc1ccc(C2C(CNC3CCCCC3)c3ccccc3CN2CCCCC(CN)NCCNC)cc1 (stereo not drawn) [TRG 2408-8] tested on MCR-4 (Homo sapiens)?
Result: 4.36

Problem: I'm curious: which pIC50 was measured for CCNc1ccc(C2C(CNC3CCCCC3)c3ccccc3CN2CCCCC(CN)NCCN)cc1 (mixture of isomers) [TRG 2408-7] tested on MCR-4 (Homo sapiens)?
Result: 4.35

Problem: I'm curious: which pIC50 was measured for CCNc1ccc(C2C(CNC3CCCCC3)c3ccccc3CN2CCCCC(N)CN)cc1 (stereo not drawn) [TRG 2408-5] tested on MCR-4 (Homo sapiens)?
Result: 4.50

Problem: I'm curious: which pIC50 was measured for CCNc1ccc(C2C(CNC3CCCCC3)c3ccccc3CN2CCCCC(CN)NCCc2ccccc2)cc1 (stereo not drawn) [TRG 2408-32] tested on MCR-4 (Homo sapiens)?
Result: 5.03

Problem: I'm curious: which pIC50 was measured for CNCCNC(CN)CCCCN1Cc2ccccc2C(CNC2CCCCC2)C1c1ccc(Cl)cc1Cl (stereo not drawn) [TRG 2408-44] tested on MCR-4 (Homo sapiens)?
Result: 5.30

Problem: I'm curious: which pIC50 was measured for CCNc1ccc(C2C(CNC3CCCCC3)c3ccccc3CN2CCCC(CN)NCCN)cc1 (stereo not drawn) [TRG 2408-63] tested on MCR-4 (Homo sapiens)?
Result: 4.73

* * *

- experimental-target: MCR-4 (Homo sapiens)
- Construct: expressed in transfected cells; host or cells: HEK 293
- assay-text: Melanocortin receptor binding assay, competition with 125I-HP 467, HEK 293 cells expressing hMCR-4
- stated-conditions: inhibition of binding of 125I-HP 467, HEK 293 cells expressing MCR-4; read-out: MC-4 IC50
- Protocol: All cell culture media and reagents were obtained from GibcoBRL (Gaithersburg Md.), except for COSMIC CALF SERUM (HyClone; Logan Utah). Cells were suspended in PBS, 10% COSMIC CALF SERUM and 1 mM CaCl2. […] To assay isoquinoline compounds, binding assays were performed in duplicate in a 96 well format. […] Cells were harvested on GF/B filter plates as described above and counted.
Records here are stratified by IC50; strata: small value (below 2 µM), mid value (2 µM to below 4 µM), large value (4 µM or more)

COc1ccc(CCNCC2c3ccccc3CN(CCCCC(CN)NCc3ccc(Br)cc3)C2c2cc(C(F)(F)F)cc(C(F)(F)F)c2)cc1 (stereo not drawn) [TRG 2421-13] :: large value
NCC(CCCCN1Cc2ccccc2C(CNCCc2ccccc2)C1c1cc(C(F)(F)F)cc(C(F)(F)F)c1)NCc1ccc(Br)cc1 (stereo not drawn) [TRG 2421-3] :: large value
CCOc1ccc(CCNCC2c3ccccc3CN(CCCCC(CN)NCc3ccc(OC)cc3)C2c2cccc(C(F)(F)F)c2)cc1 (stereo not drawn) [TRG 2421-46] :: mid value
CCNc1ccc(C2C(CNCCc3ccccc3)c3ccccc3CN2CCC[C@@H](CN)NCCCCOc2ccccc2)cc1 (stereo partly drawn) [2424#5] :: small value
COc1ccc(CCNCC2c3ccccc3CN(CCCCC(CN)NCc3ccccc3)C2c2cccc(C(F)(F)F)c2)cc1 (stereo not drawn) [TRG 2421-43] :: small value

Problem: Assign a category based on measured IC50 for CCCCNc1ccc(C2C(CNC3CCCCC3)c3ccccc3CN2CCCC(CN)NCc2ccc(OC)cc2)cc1 (stereo not drawn) [TRG 2411-212] and give only the class name.
Result: small value

Problem: Assign a category based on measured IC50 for CCNc1ccc(C2C(CNCCc3ccccc3)c3ccccc3CN2CCCC(CN)NCc2ccccc2CNCCc2ccccc2)cc1 (stereo not drawn) [TRG 2420-16] and give only the class name.
Result: small value

Problem: Assign a category based on measured IC50 for CCCCOc1ccc(C2C(CO)c3ccccc3CN2CCCC(CN)NCCC2CCCCC2)cc1 (stereo not drawn) [TRG 2415-6] and give only the class name.
Result: large value

Problem: Assign a category based on measured IC50 for Cc1ccc(CNC(CN)CCCCN2Cc3ccccc3C(CNCCc3ccccc3)C2c2cc(C(F)(F)F)cc(C(F)(F)F)c2)cc1 (mixture of isomers) [TRG 2421-2] and give only the class name.
Result: mid value

Problem: Assign a category based on measured IC50 for CCCCCc1ccc(C2C(CN)c3ccccc3CN2CCCC[C@@H](CN)NCC)cc1 (stereo partly drawn) [TRG 2415-20] and give only the class name.
Result: large value

Problem: Assign a category based on measured IC50 for CCNc1ccc(C2C(CNCCc3ccccc3)c3ccccc3CN2CCCC(CN)NCc2ccc(Cl)cc2)cc1 (stereo not drawn) [TRG 2411-159] and give only the class name.
Result: small value
